Molecular target: T1, Human recombinant PTP1B, containing amino acids 1-320, fused to GST enzyme (glutathione S-transferase), wild … (human, UniProt P18031 1-320)
T1 construct: ID No. 1, which is the DNA strand; GST is N-terminal (pGEX-2T); also called GST-PTP1B; GST-PTP-1B fusion protein; not shown: N-terminal glutathione S-transferase carrier and the pGEX-2T linker residues
T1 sequence: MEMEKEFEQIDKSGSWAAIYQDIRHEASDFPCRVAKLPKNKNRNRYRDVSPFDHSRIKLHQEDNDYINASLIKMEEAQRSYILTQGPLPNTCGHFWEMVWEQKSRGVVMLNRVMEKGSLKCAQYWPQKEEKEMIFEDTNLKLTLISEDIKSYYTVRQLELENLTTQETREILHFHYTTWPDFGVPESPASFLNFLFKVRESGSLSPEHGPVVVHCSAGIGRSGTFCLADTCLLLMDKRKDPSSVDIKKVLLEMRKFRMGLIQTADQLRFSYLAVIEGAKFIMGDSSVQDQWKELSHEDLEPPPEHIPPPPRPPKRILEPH
Experiment: GST-PTP1B SPA binding assay, competition with tritiated BzN-EJJ-CONH2, non-mutated (Cys215) enzyme
Square brackets hold non-standard residues; d marks the D form. Ends that are not written are not given here. F2Pmp = N[C@@H](Cc1ccc(C(F)(F)P(=O)(O)O)cc1)C(=O)O
experimentalReadout: pIC50
Answers are plain numbers, as −log10 of the molar value.

Field request: pIC50 | item: DADE[F2Pmp]L (Terminal caps, if any, stand only in a structure drawing that is not in the text; also called hexamer peptide containing the phosphotyrosyl mimetic F2Pmp) [DADE(F2PMP)L hexapeptide (T. Burke et al. Biochem. Biophys. Res. Comm. 204, 129, (1994))] 6.40
